assay: UV spectral shift binding assay with 2; conditions: metal ion concentration inducing a 50% shift in λmax of UV shoulder of 2 from 297 nm to 310 nm ([2] = 20 μM); read-out: EC50UV 2
Value Type: EC50 (µM)

>>> observed("[Cl-].[Cl-].[Zn+2]")
500
>>> observed("[Cl-].[Cl-].[Co+2]")
50

* * *

Test system: p3TPLux in 6F mink lung cells
Experiment: antagonism of p3TPLux activation in 6F mink lung cells
Type: cell-based
Conditions: TGFβ-responsive reporter in mink lung epithelial cells
Procedure: LUCIFERASE ASSAYS: Our transient transfection luciferase assay was described previously by us (Stockwell et al., Chem Biol 5:385, 1998). […] After cell lysis in 120 μL lysis buffer, a Beckman LS 6500 liquid scintillation counter was used in single photon mode to quantitate luminescence. […]
Value Type: suppression of reporter activation by TGFβ

>>> observed("O.O.O.O.O.O.[Cl-].[Cl-].[Co+2]")
"no effect"
>>> observed("[Cl][Fe]([Cl])[Cl]")
"no effect"

* * *

Tested on: p3TPLux in 6F mink lung cells
Assay: antagonism of p3TPLux activation in 6F mink lung cells
Type: cell-based
Conditions: metal ion concentration inhibiting 50% of the activation of p3TPLux by 1a ([1a] = 3 μM) in 6F mink lung cells; read-out: EC50SU 1a
Protocol: LUCIFERASE ASSAYS: Our transient transfection luciferase assay was described previously by us (Stockwell et al., Chem Biol 5:385, 1998). […] After cell lysis in 120 μL lysis buffer, a Beckman LS 6500 liquid scintillation counter was used in single photon mode to quantitate luminescence. […]
pEC50: −log10 of the molar value.
Value Type: pEC50

>>> observed("[Cl-].[K+]")
"< 3.00"
>>> observed("CC(=O)[O-].CC(=O)[O-].[Ba+2]")
"< 3.00"
>>> observed("[Cl-].[Cl-].[Mg+2]")
"< 3.00"
>>> observed("[Ca+2].[Cl-].[Cl-]")
"< 3.00"
>>> observed("[Cl-].[Na+]")
"< 3.00"

* * *

Entries and their measured pEC50 follow.
experiment: UV spectral shift binding assay with 1a; settings: metal ion concentration inducing a 50% shift in λmax of UV shoulder of 1a ([1a] = 15 μM) from 292 nm to 273 nm; estimate of dissociation constant; read-out: EC50UV 1a
pEC50: −log10 of the molar value.
Value Type: pEC50

>>> observed("[Cl-].[K+]")
"< 3.00"
>>> observed("O.O.O.O.O.O.O=S(=O)([O-])[O-].[Ni+2]")
3.55
>>> observed("[Cl-].[Cl-].[Mg+2]")
"< 3.00"

* * *

Entries and their measured EC50 follow.
test: UV spectral shift binding assay with 2; settings: metal ion concentration inducing a 50% shift in λmax of UV shoulder of 2 from 297 nm to 310 nm ([2] = 20 μM); read-out: EC50UV 2
Value Type: EC50

>>> observed("[Cl-].[Na+]")
"> 1000 µM"
>>> observed("CC(=O)[O-].CC(=O)[O-].[Ba+2]")
"> 1000 µM"
>>> observed("[Ca+2].[Cl-].[Cl-]")
"> 1000 µM"

Ref: patent US20080311589A1
